So I've got a bunch of compounds here, and I need their MIC values.
Test system: Staphylococcus aureus
assay-explanation: Antibacterial activity against methicillin-resistant Staphylococcus aureus isolate 9 after 24 hrs by broth microdilution method
Format: functional
study-conditions: isolate 9, 24 h
Give bare numbers, in µg/mL.

compound	MIC, µg/mL
O=C(CCc1ccc(O)cc1)c1c(O)cc(O)cc1O [PHLORETIN]	250

Give me MIC for each of these compounds, listed below.
1. CC(C)=CCc1c(O)ccc(C(=O)/C=C/c2ccc(O)cc2)c1O [ISOBAVACHALCONE]
2. O=C(N/N=C/c1ccc([N+](=O)[O-])o1)c1ccccc1
3. CN[C@H](CC(C)C)C(=O)N[C@H]1C(=O)N[C@@H](CC(N)=O)C(=O)N[C@H]2C(=O)N[C@H]3C(=O)N[C@H](C(=O)N[C@H](C(=O)O)c4cc(O)cc(O)c4-c4cc3ccc4O)[C@H](O)c3ccc(c(Cl)c3)Oc3cc2cc(c3O[C@@H]2O[C@H](CO)[C@@H](O)[C@H](O)[C@H]2O[C@H]2C[C@](C)(N)[C@H](O)[C@H](C)O2)Oc2ccc(cc2Cl)[C@H]1O [VANCOMYCIN]
4. O=C(/C=C/c1ccc(O)cc1)c1ccc(O)cc1O [ISOLIQUIRITIGENIN]

Response:
[62.5, 125, 0.8, 62.5]

Prompt: State its MIC for this compound: COc1cc(C(=O)N/N=C/c2ccc([N+](=O)[O-])s2)cc(OC)c1OC
Response: 125

----------
System: Staphylococcus aureus
assay-explanation: Antibacterial activity against methicillin-resistant Staphylococcus aureus isolate 6 after 24 hrs by broth microdilution method
Type: functional
study-conditions: isolate 6, 24 h
measured-attribute: MIC (µg/mL)
One number for each entry, in µg/mL.

compound	MIC / µg/mL
O=C(/C=C/c1ccc(O)cc1)c1ccc(O)cc1O [ISOLIQUIRITIGENIN]	62.5
O=C(N/N=C/c1ccc([N+](=O)[O-])o1)c1ccccc1	62.5
O=C(CCc1ccc(O)cc1)c1c(O)cc(O)cc1O [PHLORETIN]	250
CN[C@H](CC(C)C)C(=O)N[C@H]1C(=O)N[C@@H](CC(N)=O)C(=O)N[C@H]2C(=O)N[C@H]3C(=O)N[C@H](C(=O)N[C@H](C(=O)O)c4cc(O)cc(O)c4-c4cc3ccc4O)[C@H](O)c3ccc(c(Cl)c3)Oc3cc2cc(c3O[C@@H]2O[C@H](CO)[C@@H](O)[C@H](O)[C@H]2O[C@H]2C[C@](C)(N)[C@H](O)[C@H](C)O2)Oc2ccc(cc2Cl)[C@H]1O [VANCOMYCIN]	0.4
COc1cc(C(=O)N/N=C/c2ccc([N+](=O)[O-])s2)cc(OC)c1OC	125

# next compound below
Prompt: Please tell me the measured MIC for CC(C)=CCc1c(O)ccc(C(=O)/C=C/c2ccc(O)cc2)c1O [ISOBAVACHALCONE] ; system: Staphylococcus aureus.
Response: 62.5

----------
Test system: Vero
assay-explanation: Cytotoxicity against African green monkey Vero cells assessed as inhibition of cell growth after 72 hrs by MTT assay
Format: cell-based
study-conditions: Chlorocebus sabaeus
measured-attribute: IC50

smi	measured-attribute	recorded-measurement
O=C(CCc1ccc(O)cc1)c1c(O)cc(O)cc1O	IC50	125 µg/mL
O=C(/C=C/c1ccc(O)cc1)c1ccc(O)cc1O	IC50	31.2 µg/mL
COc1cc(C(=O)N/N=C/c2ccc([N+](=O)[O-])s2)cc(OC)c1OC	IC50	7.81 µg/mL
CC(C)=CCc1c(O)ccc(C(=O)/C=C/c2ccc(O)cc2)c1O	IC50	31.2 µg/mL

Now for a further molecule.
Prompt: Determine from records and report IC50 for O=C(N/N=C/c1ccc([N+](=O)[O-])o1)c1ccccc1
Response: 7.81 µg/mL

Values were extracted from ChEMBL document CHEMBL1938275.
